Recorded CDK2 % Inhibition at 0.03 μM values for a group of molecules are listed next.
- tested-on: CDK2/Cyclin A (Homo sapiens, UniProt P24941)
- assay-summary: Inhibition of CDK2/Cyclin A Retinoblastoma Kinase Activity
- Assay type: biochemical
- experimental-setup: 0.03 μM compound; Table 4; 0.03 µM

{"columns": ["molecule", "value-units", "CDK2 % Inhibition at 0.03 μM"],
 "data": [
  ["CCCCCCOc1ccc(C(=O)N2CCC(Nc3nc(N)c(C(=O)c4c(F)cccc4F)s3)CC2)cc1 [Example Q31]", "%", "−2"],
  ["CCCCCCOc1ccc(C(=O)N2CCC(Nc3nc(N)c(C(=O)c4c(F)cccc4F)s3)CC2)cc1 [Example Q30]", "%", "−4"],
  ["Nc1nc(NC2CCN(C(=O)c3cccs3)CC2)sc1C(=O)c1c(F)cccc1F [Example Q61]", "%", 41],
  ["Nc1nc(NC2CCN(C(=O)c3cccs3)CC2)sc1C(=O)c1c(F)cccc1F [Example Q64]", "%", 45]
]}
